meta.source: the supplement of paper PMC6755084

B1: minF1; a variant is named by its letters at N, in order (parent)
chain: GAGACCGCAACTGAAAAGTTGTTNNNNAANNNNNGGNTNAATTTCTGCACGTAGAAGCAAAAGGC

# Variants of: B1
# ASSAY OVERVIEW: fraction ligated after 30 min (ligated reads / total reads); higher = more ligase activity
# PROTOCOL CONDITIONS: with F1*subA RNA substrate (template-directed ligation), 42 °C
Label 1 when fraction ligated is at or above 0.005; anything below gets -1.

Check out these entries, answers already filled in.
> print(dat)
       mutation.notation  class.label
1       TCAGAGATGTG T23A           -1
2            ATCGTGGAGTG           -1
3            TAGATGGAGTG           -1
4            TCAGAGGTGTG           -1
5  TAGAGGATGTG T23A A29T            1

Input line: Exam item: decide whether the reported fraction ligated for ATCAAATATTG A28G is at least 0.005.
Output line: -1

Input line: Please answer likewise for ATCAAAGGAGT A28G
Output line: -1

Input line: What do you have for ATAGATGTGTG ?
Output line: -1

Input line: Note, next up: ATAGATGAGTG
Output line: -1

Input line: Subsequent entry: ACAGTGATGTG
Output line: -1

Input line: Moving on to the next variant: ATCAATATGTG
Output line: -1
